tested on: purified BoTEMO enzyme; test: Specific activity and ee of purified BoTEMO enzyme against a series of thioethers; assay type: biochemical, Bradyrhizobium oligotrophicum ECU1212; conditions: pH 9.0, 25° C.
Reported Metric: Specific Activity

Answered examples (4):
COCCCOc1ccnc(CSc2nc3ccccc3[nH]2)c1C : + (“+”: <10 U/g)
COc1ccnc(CSc2nc3cc(OC(F)F)ccc3[nH]2)c1OC : + (“+”: <10 U/g)
CSc1ccc(C)cc1 : + (“+”: <10 U/g)
COc1ccc2[nH]c(SC)nc2c1 : + (“+”: <10 U/g)

Check the records and state Specific Activity for COc1ccc2[nH]c(SCc3ncc(C)c(OC)c3C)nc2c1
++ (“++”: 10 ~ 100 U/g)

Name the recorded Specific Activity of the item Cc1c(OCC(F)(F)F)ccnc1CSc1nc2ccccc2[nH]1 in your answer.
+ (“+”: <10 U/g)

Determine its reported Specific Activity: COc1ccnc(CSc2nc3cc(-n4cccc4)ccc3[nH]2)c1C
++ (“++”: 10 ~ 100 U/g)
